Where do these numbers come from? They come from patent US7056947B2.

# studyTarget: caspase-3 (Homo sapiens, UniProt P42574)
# Construct: made in house; host or cells: E. coli
# Sequence (P42574 29-175 limits assumed): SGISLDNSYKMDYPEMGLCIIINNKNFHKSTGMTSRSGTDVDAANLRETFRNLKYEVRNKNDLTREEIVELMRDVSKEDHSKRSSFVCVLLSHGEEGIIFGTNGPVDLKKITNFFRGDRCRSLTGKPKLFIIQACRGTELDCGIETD
# Sequence (P42574 176-277 limits assumed): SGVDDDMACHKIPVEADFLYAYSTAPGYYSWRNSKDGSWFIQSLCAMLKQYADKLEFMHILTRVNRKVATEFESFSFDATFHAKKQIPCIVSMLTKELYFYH
# experimentalDetails: Caspase-3 progress curve assay
# Assay type: biochemical
# conditionInfo: substrate Z-DEVD-AFC; NI = no inhibition
Respond with satisfied for k2 caspase-3 values of 500000 M⁻¹ s⁻¹ and above, not satisfied for values below.

input: Entry CC(C)CC(NC(=O)[C@H]1O[C@@H]1C(=O)N(CC(=O)O)NC(=O)[C@H](C)NC(=O)[C@@H](NC(=O)CCc1ccccc1)C(C)C)C(N)=O (stereo partly drawn) [23k] : is its k2 caspase-3 no less than 500000 M⁻¹ s⁻¹?
output: not satisfied

input: Would you kindly repeat that for CC(C)[C@H](NC(=O)[C@H](CCC(=O)O)NC(=O)[C@H](CC(=O)O)NC(=O)OCc1ccccc1)C(=O)NN(CC(=O)O)C(=O)[C@H]1O[C@@H]1C(=O)OCc1ccccc1 [25d] ?
output: satisfied

input: Would you kindly repeat that for CC(C)C(NC(=O)OCc1ccccc1)C(=O)NN(CC(=O)O)C(=O)C1OC1C(=O)O [22n, Cbz-Val-AAsp-(S,S)-EP-COOH] ?
output: not satisfied

input: Would you kindly repeat that for CCOC(=O)C1OC1C(=O)N(CC(=O)O)NC(=O)C(NC(=O)OCc1ccccc1)C(C)C [22c, Cbz-Val-AAsp-(S,S)-EP-COOEt] ?
output: not satisfied

input: Would you kindly repeat that for CC(C)[C@H](NC(=O)[C@H](CCC(=O)O)NC(=O)[C@H](CC(=O)O)NC(=O)OCc1ccccc1)C(=O)NN(CC(=O)O)C(=O)[C@H]1O[C@@H]1C(=O)NCc1ccccc1 [25g] ?
output: satisfied

input: Would you kindly repeat that for CCOC(=O)[C@@H]1O[C@H]1C(=O)N(CC(=O)O)NC(=O)[C@@H](NC(=O)[C@H](CCC(=O)O)NC(=O)[C@H](CC(=O)O)NC(=O)OCc1ccccc1)C(C)C [25c (R,R)] ?
output: not satisfied
